Data credit: patent US11034724B2

test: Approximate solubility assessment (solvent addition technique); format: physicochemical; settings: ethanol, solvent Ethanol, 50° C.; read-out: Approximate Solubility (50° C.)
Non-standard residues stand in square brackets, D forms with d. Residues, ends and D or L forms follow the SMILES beside them. *: point of attachment. Dmt = Cc1cc(O)cc(C)c1C[C@H](N)C(=O)O; Boc = CC(C)(C)OC(=O)*
assay.readout: solubility

Returns the measured solubility for the input molecule. Input: Cc1cc(O)cc(C)c1C[C@H](NC(=O)[C@@H](CCCNC(=N)N)NC(=O)OC(C)(C)C)C(=O)N[C@@H](CCCCNC(=O)OC(C)(C)C)C(=O)N[C@@H](Cc1ccccc1)C(N)=O [Boc-D-Arg-DMT-Lys(Boc)-Phe-NH2] (Boc-[dR][Dmt]K(Boc)F-NH2)
~140 mg/mL

====

assay: Approximate solubility assessment (solvent addition technique); type: physicochemical; conditions: dichloromethane, 35° C. for dichloromethane, read-out: Approximate Solubility (50° C.)
Non-standard residues stand in square brackets, D forms with d. Residues, ends and D or L forms follow the SMILES beside them. *: point of attachment. Dmt = Cc1cc(O)cc(C)c1C[C@H](N)C(=O)O; Boc = CC(C)(C)OC(=O)*
assay.readout: solubility

Returns the measured solubility for the input compound. Input: Cc1cc(O)cc(C)c1C[C@H](NC(=O)[C@@H](CCCNC(=N)N)NC(=O)OC(C)(C)C)C(=O)N[C@@H](CCCCNC(=O)OC(C)(C)C)C(=O)N[C@@H](Cc1ccccc1)C(N)=O [Boc-D-Arg-DMT-Lys(Boc)-Phe-NH2] (Boc-[dR][Dmt]K(Boc)F-NH2)
< 10000 µg/mL

====

test: Approximate solubility assessment (solvent addition technique); format: physicochemical; conditions: trifluoroethanol, solvent Trifluoroethanol, 50° C.; read-out: Approximate Solubility (50° C.)
Non-standard residues stand in square brackets, D forms with d. Residues, ends and D or L forms follow the SMILES beside them. *: point of attachment. Dmt = Cc1cc(O)cc(C)c1C[C@H](N)C(=O)O; Boc = CC(C)(C)OC(=O)*
assay.readout: solubility

Returns the measured solubility for the input compound. Input: Cc1cc(O)cc(C)c1C[C@H](NC(=O)[C@@H](CCCNC(=N)N)NC(=O)OC(C)(C)C)C(=O)N[C@@H](CCCCNC(=O)OC(C)(C)C)C(=O)N[C@@H](Cc1ccccc1)C(N)=O [Boc-D-Arg-DMT-Lys(Boc)-Phe-NH2] (Boc-[dR][Dmt]K(Boc)F-NH2)
≥ 200 mg/mL

====

experiment: Approximate solubility assessment (solvent addition technique); assay type: physicochemical; details: 2-butanol, solvent 2-Butanol, 50° C.; read-out: Approximate Solubility (50° C.)
Non-standard residues stand in square brackets, D forms with d. Residues, ends and D or L forms follow the SMILES beside them. *: point of attachment. Dmt = Cc1cc(O)cc(C)c1C[C@H](N)C(=O)O; Boc = CC(C)(C)OC(=O)*
assay.readout: solubility (mg/mL)
Answers are plain numbers, in mg/mL.

Returns the measured solubility for the input compound. Input: Cc1cc(O)cc(C)c1C[C@H](NC(=O)[C@@H](CCCNC(=N)N)NC(=O)OC(C)(C)C)C(=O)N[C@@H](CCCCNC(=O)OC(C)(C)C)C(=O)N[C@@H](Cc1ccccc1)C(N)=O [Boc-D-Arg-DMT-Lys(Boc)-Phe-NH2] (Boc-[dR][Dmt]K(Boc)F-NH2)
17

====

test: Approximate solubility assessment (solvent addition technique); type: physicochemical; settings: methanol, solvent Methanol, 50° C.; read-out: Approximate Solubility (50° C.)
Non-standard residues stand in square brackets, D forms with d. Residues, ends and D or L forms follow the SMILES beside them. *: point of attachment. Dmt = Cc1cc(O)cc(C)c1C[C@H](N)C(=O)O; Boc = CC(C)(C)OC(=O)*
assay.readout: solubility

Returns the measured solubility for the input compound. Input: Cc1cc(O)cc(C)c1C[C@H](NC(=O)[C@@H](CCCNC(=N)N)NC(=O)OC(C)(C)C)C(=O)N[C@@H](CCCCNC(=O)OC(C)(C)C)C(=O)N[C@@H](Cc1ccccc1)C(N)=O [Boc-D-Arg-DMT-Lys(Boc)-Phe-NH2] (Boc-[dR][Dmt]K(Boc)F-NH2)
≥ 200 mg/mL

====

test: Approximate solubility assessment (solvent addition technique); type: physicochemical; settings: 2-propanol:water (50:50% v/v), solvent 2-propanol:water (50:50% v/v), 50° C.; read-out: Approximate Solubility (50° C.)
Non-standard residues stand in square brackets, D forms with d. Residues, ends and D or L forms follow the SMILES beside them. *: point of attachment. Dmt = Cc1cc(O)cc(C)c1C[C@H](N)C(=O)O; Boc = CC(C)(C)OC(=O)*
assay.readout: solubility

Returns the measured solubility for the input molecule. Input: Cc1cc(O)cc(C)c1C[C@H](NC(=O)[C@@H](CCCNC(=N)N)NC(=O)OC(C)(C)C)C(=O)N[C@@H](CCCCNC(=O)OC(C)(C)C)C(=O)N[C@@H](Cc1ccccc1)C(N)=O [Boc-D-Arg-DMT-Lys(Boc)-Phe-NH2] (Boc-[dR][Dmt]K(Boc)F-NH2)
~100 mg/mL
